biological target: h-NTPDase2 (Homo sapiens); construct: made in house; host or cells: COS-7 cells, transient transfection; crude protein extract after sonication; test: h-NTPDase2 inhibition, malachite green assay; type: biochemical
Sequence (Q9Y5L3 whole entry): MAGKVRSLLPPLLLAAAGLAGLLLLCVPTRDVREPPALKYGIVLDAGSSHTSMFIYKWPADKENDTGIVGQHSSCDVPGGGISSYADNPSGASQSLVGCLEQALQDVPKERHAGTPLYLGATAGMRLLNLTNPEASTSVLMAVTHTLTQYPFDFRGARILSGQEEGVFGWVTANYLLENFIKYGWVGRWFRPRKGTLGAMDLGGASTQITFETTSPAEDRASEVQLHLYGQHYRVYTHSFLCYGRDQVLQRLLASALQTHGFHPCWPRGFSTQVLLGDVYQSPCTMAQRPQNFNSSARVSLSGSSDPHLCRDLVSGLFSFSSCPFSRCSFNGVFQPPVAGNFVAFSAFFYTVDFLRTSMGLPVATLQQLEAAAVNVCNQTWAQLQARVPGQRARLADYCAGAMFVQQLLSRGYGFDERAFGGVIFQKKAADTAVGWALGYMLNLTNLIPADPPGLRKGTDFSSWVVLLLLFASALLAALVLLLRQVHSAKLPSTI
Measured Ki by item

| compound | Ki / µM |
| --- | --- |
| Cc1ccc(C(=O)Nc2ccc(S(=O)(=O)O)c3cc(S(=O)(=O)O)cc(S(=O)(=O)O)c23)cc1NC(=O)c1cccc(NC(=O)Nc2cccc(C(=O)Nc3cc(C(=O)Nc4ccc(S(=O)(=O)O)c5cc(S(=O)(=O)O)cc(S(=O)(=O)O)c45)ccc3C)c2)c1 [Suramin, reference compound] | 9.92 |
| COc1ccc(NC(=S)NNC2=c3ccccc3=NC2=O)cc1 [8k] | 0.07 |
| COc1ccc(OC)c(NC(=S)N/N=C2\C(=O)Nc3ccccc32)c1 [8j] | 0.04 |
| Cc1cccc(C)c1NC(=S)N/N=C1\C(=O)Nc2ccccc21 [8i] | 0.17 |
